Let's look at some IC50 data for Seed linoleate 13S-lipoxygenase-1 (Glycine max, UniProt P08170) that I collected from the literature.
reported property: IC50 (µM)

Task: For Seed linoleate 13S-lipoxygenase-1 (Glycine max, UniProt P08170), provide IC50 of "CC(=O)N(c1nc(-c2cccc([N+](=O)[O-])c2)no1)C(C)C" please.
Output: 58.5

Task: Moving on to Cc1cc(=O)oc2cc(OCC(O)CNc3nc4cc(Cl)c(Cl)cc4s3)ccc12 (stereo unspecified)
Output: 0.0155

[I] Cc1cc(=O)oc2cc(OCC(O)CNc3nc4ccc([N+](=O)[O-])cc4s3)ccc12 (stereo unspecified)
[II] Cc1nc(N2CCN(C)CC2)nc2c1Nc1ccccc1S2
[III] O=[N+]([O-])c1ccc(Cc2noc(NC3CCCCC3)n2)cc1
[IV] c1ccc([PH]([Au][S]c2nc3ccccc3s2)(c2ccccc2)c2ccccc2)cc1
Task: Sort by IC50, descending. Output the labels ranked as instructed.
Output: III, IV, II, I

[1] CCOc1ccc(C(C2C(=O)CC(C)(C)CC2=O)C2C(=O)CC(C)(C)CC2=O)cc1
[2] CC(=O)N(c1nc(-c2ccc([N+](=O)[O-])cc2)no1)C1CCCCC1
Task: Name the one with the greater IC50 value, either 1 or 2 as given. Selection: enter the item's label.
Output: 2

[I] Clc1ccc(Cc2noc(NC3CCCCC3)n2)cc1
[II] COc1cc(-c2coc3cc(O)c(O)cc3c2=O)ccc1O
[III] O=c1ccc2ccc3c(c2o1)CC=CCO3
[IV] Cc1cc(=O)oc2cc(OCC(O)CNc3nc4cc(Cl)c(F)cc4s3)ccc12 (stereo unspecified)
[V] O=C(/C=C/c1ccc(O)c(O)c1)O[C@H](Cc1ccc(O)c(O)c1)C(=O)O
Task: Arrange the 5 entries by IC50 so the values rise. Output the labels ranked as instructed.
Output: IV, I, II, III, V

====

Let's look at some IC50 data for Seed linoleate 13S-lipoxygenase-1 (Glycine max, UniProt P08170) that I collected from the literature.
reported property: IC50 (µM)

Field: example entries. Status: answers known.
Task: Query (compound): "CCOC(=O)c1c(C)oc(-c2ccc(Cl)cc2)c1CC(=O)c1ccc(Cl)cc1" ; field requested: IC50
Output: 32

Task: Moving on to "Cc1ccc(C(C2C(=O)CC(C)(C)CC2=O)C2C(=O)CC(C)(C)CC2=O)cc1"
Output: 16.3

Task: Moving on to "CC1(C)CC(=O)C(C(c2ccccc2Cl)C2C(=O)CC(C)(C)CC2=O)C(=O)C1"
Output: 28.4

Task: Moving on to "NC1=NN(c2cccc(C(F)(F)F)c2)CC1"
Output: 213

[A] COc1ccc(C(C2C(=O)CC(C)(C)CC2=O)C2C(=O)CC(C)(C)CC2=O)c(OC)c1
[B] CC1(C)CC(=O)C(C(c2cccc(Br)c2)C2C(=O)CC(C)(C)CC2=O)C(=O)C1
[C] CC1(C)CC(=O)C(C(c2ccccc2O)C2C(=O)CC(C)(C)CC2=O)C(=O)C1
[D] CCOC(=O)c1c(C)oc(-c2ccc(C)cc2)c1CC(=O)c1ccc(C)cc1
[E] CCOC(=O)c1c(C)oc(-c2ccccc2)c1CC(=O)c1ccccc1
Task: Arrange the 5 entries by IC50 so the values rise. Output the labels ranked as instructed.
Output: D, A, B, C, E

====

Let's look at some pIC50 data for Seed linoleate 13S-lipoxygenase-1 (Glycine max) that I collected from the literature.
pIC50: −log10 of the molar value.
reported property: pIC50

Field: example entries. Status: answers known.
Task: For Seed linoleate 13S-lipoxygenase-1 (Glycine max), provide pIC50 of "CC(C)Nc1nc(Cc2ccc(Cl)cc2)no1" please.
Output: 4.00

Task: Moving on to "CCOC(=O)c1c(C)oc(-c2ccc(Br)cc2)c1CC(=O)c1ccc(Br)cc1"
Output: 4.67

Task: Moving on to "CC1(C)CC(=O)C(C(c2ccc(O)cc2)C2C(=O)CC(C)(C)CC2=O)C(=O)C1"
Output: 4.58

[1] COC(=O)c1c(C)oc(-c2ccc(C)c(Cl)c2)c1CC(=O)c1ccc(C)c(Cl)c1
[2] CCN1CCN(c2nc(C)c(Br)c(Sc3nnc(Sc4nc(N5CCN(CC)CC5)nc(C)c4Br)n3N)n2)CC1
[3] O=C(O)C[C@H]1CCC(=O)[C@@H]1C/C=C/CCO[C@H]1OC(CO)[C@H](O)C(O)[C@H]1O (some centres not stated)
Task: Sort by pIC50, descending. Output the labels ranked as instructed.
Output: 2, 1, 3
(2: 4.92, 1: 4.32, 3: 3.25)

====

Let's look at some IC50 data for Seed linoleate 13S-lipoxygenase-1 (Glycine max) that I collected from the literature.
reported property: IC50 (µM)

Field: example entries. Status: answers known.
Task: Query (compound): "Cc1ccc(-c2noc(NC3CCCCC3)n2)cc1" ; field requested: IC50
Output: 92

Task: Moving on to COC(=O)C1=CO[C@@H](O)C2C(CO)C=CC12 (stereo partly drawn)
Output: 49.6

Task: Moving on to "COC(=O)c1c(C)oc(-c2ccc(Cl)cc2)c1CC(=O)c1ccc(Cl)cc1"
Output: 32.5

Task: Moving on to "CC1(C)CC(=O)C(C(c2ccco2)C2C(=O)CC(C)(C)CC2=O)C(=O)C1"
Output: 51.5

Task: Moving on to "Cc1ccc(-c2noc(NCCCN(C)C)n2)cc1"
Output: 25

[1] C=CCc1c(OC)cc(C)cc1OC
[2] COc1ccccc1C(C1C(=O)CC(C)(C)CC1=O)C1C(=O)CC(C)(C)CC1=O
Task: Identify the item whose IC50 is the smaller number: 1 or 2 Selection: enter the item's label.
Output: 1
